The reported measurements were obtained from the supplement of paper PMC12420376.

tested on: OVCAR8; test: drug sensitivity score (DSS2) on cancer cell count; higher = more sensitive; extreme values may be limits of the assay; conditions: co-cultured fibroblast: BJHTERT; 72 h
Provide the reported drug sensitivity score of each item.
Lab note: write values as number then unit, every time.

(Q) Determine its reported drug sensitivity score: COc1cc(Br)c(Nc2nc(-c3c(C)nc4ncccn34)cs2)c(Br)c1
(A) 9.1 DSS

(Q) Give recorded drug sensitivity score. NC1(c2ccc(-c3nc4ccn5c(=O)[nH]nc5c4cc3-c3ccccc3)cc2)CCC1
(A) 0.2 DSS

(Q) Determine its reported drug sensitivity score: CN[C@@H]1C[C@H]2O[C@@](C)([C@@H]1OC)n1c3ccccc3c3c4c(c5c6ccccc6n2c5c31)C(=O)N[C@H]4O
(A) 19.6 DSS

(Q) State, in one line, measured drug sensitivity score of Nc1ncn([C@@H]2O[C@H](CO)[C@@H](O)[C@H]2O)c(=O)n1
(A) 3.9 DSS

(Q) Give reported drug sensitivity score value for CCOC(=O)C1=CCCC[C@H]1S(=O)(=O)Nc1ccc(F)cc1Cl
(A) 0 DSS

(Q) For the molecule Clc1ccc(C(c2ccccc2Cl)C(Cl)Cl)cc1 (configuration not stated) , report drug sensitivity score.
(A) 0 DSS

(Q) Quick one: give measured drug sensitivity score for O=C(O)c1ccc(CN2CCC(CN[C@@H]3C[C@H]3c3ccccc3)CC2)cc1
(A) 0 DSS

(Q) Specify reported drug sensitivity score for the molecule shown: C=CC(=O)Nc1cccc(Oc2nc(Nc3ccc(N4CCN(C)CC4)cc3)nc3ccsc23)c1
(A) 0 DSS

(Q) Please give measured drug sensitivity score of the following entry: Cc1ccc(NC(=O)c2ccc(CN3CCN(C)CC3)cc2)cc1Nc1nccc(-c2cccnc2)n1
(A) 2 DSS

(Q) Note drug sensitivity score for the molecule shown: C=CCc1cccc(/C=N/NC(=O)CN2CCN(Cc3ccccc3)CC2)c1O
(A) 7.4 DSS

(Q) Please report the measured drug sensitivity score for O=C(Nc1cccnc1)N1CCC(Cc2cccc(Oc3ccc(C(F)(F)F)cn3)c2)CC1
(A) 0 DSS

(Q) Check the records and state drug sensitivity score for O=C(CCNC(=O)c1ccc(OC(F)(F)F)cc1)N[C@@H]1CCCc2ccccc21
(A) 8.5 DSS

(Q) Name the recorded drug sensitivity score of the molecule listed here: CCc1cncnc1N1CCN(Cc2nc3ccc(C(F)(F)F)cc3[nH]2)CC1
(A) 1.3 DSS

(Q) Give the reported drug sensitivity score for this molecule. Cc1nc(Nc2n[nH]c3c2CN(C(=O)N[C@H](CN(C)C)c2ccccc2)C3(C)C)c2sccc2n1
(A) 20.8 DSS

(Q) Provide drug sensitivity score value for the following molecule: CN1CC[C@@H](NC(=O)Nc2ccc(C#N)cc2)C[C@@H]1c1nc2ccccc2[nH]1
(A) 0 DSS

(Q) Input CC(C)C[C@H](NC(=O)[C@H](CCc1ccccc1)NC(=O)CN1CCOCC1)C(=O)N[C@@H](Cc1ccccc1)C(=O)N[C@@H](CC(C)C)C(=O)[C@@]1(C)CO1 , output reported drug sensitivity score.
(A) 26.2 DSS

(Q) Give a short answer stating reported drug sensitivity score for CC1CCC(n2c3cnccc3c3cnc(Nc4ccc5c(n4)CCN(C(=O)CO)C5)nc32)CC1 (configuration not stated) .
(A) 0 DSS

====

system: OVCAR8; assay: drug sensitivity score (DSS2) on cancer cell count; higher = more sensitive; extreme values may be limits of the assay; conditions: co-cultured fibroblast: BJHTERT; 72 h
measure: drug sensitivity score

(Q) Under OVCAR8, report drug sensitivity score for Oc1ccc2c(c1)CC[C@H](c1ccccc1)[C@@H]2c1ccc(OCCN2CCCC2)cc1 [Lasofoxifene]
(A) 0 DSS

(Q) Answer with drug sensitivity score of O=C(/C=C/c1cccnc1)NCCCCC1CCN(C(=O)c2ccccc2)CC1 [Daporinad] measured for OVCAR8.
(A) 22.5 DSS

(Q) // fetch drug sensitivity score for O=C(c1cc(Cc2n[nH]c(=O)c3ccccc23)ccc1F)N1CCN(C(=O)C2CC2)CC1 [Olaparib] ; system: OVCAR8
(A) 12.5 DSS

(Q) Provide the reported drug sensitivity score (system: OVCAR8) for CN(C)C(=N)NC(=N)N [Metformin]
(A) 0 DSS

(Q) Please tell me the measured drug sensitivity score for O=C(CCCCCCNC(=O)c1cnc(N(c2ccccc2)c2ccccc2)nc1)NO [Rocilinostat] ; system: OVCAR8.
(A) 10.4 DSS

(Q) Write drug sensitivity score of Nc1ncn([C@H]2C[C@H](O)[C@@H](CO)O2)c(=O)n1 [Decitabine] ; system used: OVCAR8
(A) 6.9 DSS

(Q) Consider the compound O=C(Nc1ccc(OC(F)(F)Cl)cc1)c1cnc(N2CC[C@@H](O)C2)c(-c2cc[nH]n2)c1 [Asciminib] tested on OVCAR8; state its drug sensitivity score.
(A) 0 DSS

(Q) Please tell me the measured drug sensitivity score for Cc1c(N)nc([C@H](CC(N)=O)NC[C@H](N)C(N)=O)nc1C(=O)N[C@H](C(=O)N[C@H](C)[C@@H](O)[C@H](C)C(=O)N[C@H](C(=O)NCCc1nc(-c2nc(C(=O)NCCC[S+](C)C)cs2)cs1)[C@@H](C)O)[C@@H](OC1OC(CO)C(O)C(O)C1OC1OC(CO)C(O)C(OC(N)=O)C1O)c1cnc[nH]1 (stereo partly specified) [Bleomycin] ; system: OVCAR8.
(A) 12.1 DSS

(Q) Find drug sensitivity score for CC(C)[C@@H](CS(=O)(=O)C(C)C)N1C(=O)[C@@](C)(CC(=O)O)C[C@H](c2cccc(Cl)c2)[C@H]1c1ccc(Cl)cc1 [AMG-232] on OVCAR8 and write it down.
(A) 1.6 DSS

(Q) Write down measured drug sensitivity score (OVCAR8) for this compound. CCCc1cc(C)[nH]c(=O)c1CNC(=O)c1cc(-c2ccnc(N3CCN(C)CC3)c2)cc2c1cnn2C(C)C [GSK343]
(A) 1 DSS

(Q) Quote OVCAR8 drug sensitivity score for entry Cc1cccc(CC(=O)N2CCc3c2ccc(-c2cn(C)c4ncnc(N)c24)c3F)n1 .
(A) 1.4 DSS

(Q) # return drug sensitivity score of NC(=O)c1cccc(-c2cccc(OC(=O)NC3CCCCC3)c2)c1 [URB597] (system: OVCAR8)
(A) 0 DSS

(Q) # return drug sensitivity score of CCCC(CCC)C(=O)O [Valproic acid] (system: OVCAR8)
(A) 0 DSS

(Q) State recorded drug sensitivity score with OVCAR8, entry O=C(Nc1cc(Cl)cc2c1[nH]c1cnccc12)c1cccnc1 [PS-1145] , no comment.
(A) 0 DSS

(Q) Lab note: OVCAR8 assay, enter drug sensitivity score for C[C@H]1Oc2cc(cnc2N)-c2c(nn(C)c2C#N)CN(C)C(=O)c2ccc(F)cc21 here
(A) 0.4 DSS

(Q) Name the recorded drug sensitivity score of CNC(=O)c1ccc(-c2cnc3ncc(Cc4ccc5ncccc5c4)n3n2)cc1F [Capmatinib] , assay system OVCAR8.
(A) 0 DSS

====

test system: OVCAR8; assay: drug sensitivity score (DSS2) on cancer cell count; higher = more sensitive; extreme values may be limits of the assay; settings: co-cultured fibroblast: WI38; 72 h
measure: drug sensitivity score (DSS)
Write down the numeric answer in DSS and omit the unit.

(Q) Identify the reported drug sensitivity score for the following entry. CCOc1ccccc1-n1c(C(C)N2CCN(C(=O)COc3ccc(Cl)cc3)CC2)nc2ccccc2c1=O (centres undefined)
(A) 18.6

(Q) Check the records and state drug sensitivity score for COc1cc([C@@H]2c3cc4c(cc3[C@@H](O[C@@H]3O[C@@H]5CO[C@@H](c6cccs6)O[C@H]5[C@H](O)[C@H]3O)[C@H]3COC(=O)[C@H]23)OCO4)cc(OC)c1O [Teniposide]
(A) 0

(Q) Give the measured drug sensitivity score for Oc1ccc2c(c1)CC[C@H](c1ccccc1)[C@@H]2c1ccc(OCCN2CCCC2)cc1
(A) 5.5

(Q) Tell us which drug sensitivity score value is on record for O=c1ncn2nc(Sc3ccc(F)cc3F)ccc2c1-c1c(Cl)cccc1Cl
(A) 0

====

test system: KURAMOCHI; assay: drug sensitivity score (DSS2) on cancer cell count; higher = more sensitive; extreme values may be limits of the assay; settings: co-cultured fibroblast: BJHTERT; 72 h
Assign drug sensitivity score to each entry below.
Kindly answer with a numeric value in DSS, unit omitted.

(Q) Look up and state reported drug sensitivity score for CC(C)(C)C[C@@H]1N[C@@H](C(=O)N[C@H]2CC[C@H](O)CC2)[C@H](c2cccc(Cl)c2F)[C@]12C(=O)Nc1cc(Cl)ccc12
(A) 0

(Q) Specify measured drug sensitivity score for CC(C)n1nc(-c2ccc3oc(N)nc3c2)c2c(N)ncnc21 .
(A) 13.5

(Q) Find the measured drug sensitivity score of CC(C)C[C@H](NC(=O)[C@H](Cc1ccccc1)NC(=O)c1cnccn1)B(O)O and report it.
(A) 11.5

(Q) State, in one line, measured drug sensitivity score of CNC(=O)c1ccc(N2C(=S)N(c3cnc(C#N)c(C(F)(F)F)c3)C(=O)C23CCC3)cc1F [Apalutamide]
(A) 0

(Q) Answer with the recorded drug sensitivity score of N.N.[Cl][Pt][Cl] [Cisplatin] only.
(A) 1.6
